Taken from paper PMC12557367.

assay-target: T1, nectin-4 on intact HT-1376 cells (human (endogenous in HT-1376), UniProt Q96NY8 32-510)
T1 construct: also called cellular nectin-4
T1 sequence (looked up): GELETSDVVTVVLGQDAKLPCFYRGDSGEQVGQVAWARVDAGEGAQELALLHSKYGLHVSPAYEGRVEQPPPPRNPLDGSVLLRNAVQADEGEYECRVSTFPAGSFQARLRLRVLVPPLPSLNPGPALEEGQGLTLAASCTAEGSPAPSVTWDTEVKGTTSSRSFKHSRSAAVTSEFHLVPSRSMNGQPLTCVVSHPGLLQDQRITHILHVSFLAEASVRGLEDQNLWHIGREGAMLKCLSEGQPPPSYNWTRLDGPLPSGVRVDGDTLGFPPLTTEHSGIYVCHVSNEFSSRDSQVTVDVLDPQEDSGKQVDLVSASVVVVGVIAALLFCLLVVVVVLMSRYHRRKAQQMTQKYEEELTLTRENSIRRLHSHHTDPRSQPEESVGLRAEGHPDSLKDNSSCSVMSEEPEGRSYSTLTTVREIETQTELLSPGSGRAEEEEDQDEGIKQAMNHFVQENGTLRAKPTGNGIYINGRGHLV
assay-overview: radioligand binding; saturation binding on intact HT-1376 cells, 10 radioligand concentrations (0.156-80 or 0.321-160 nM), 37 °C, 1 h, PBS wash; nonspecific with 1 µM 1d; apparent (covers binding and putative internalisation)
experimental-setup: one partner purified
Numbered stars: 1 amine (or outer) side, 2 acyl side, 3 side chain; on linkers, the order of the positions; unused ones are H or OH. Bridge positions count the residues as written; N and C are the ends. Square brackets hold non-standard residues; d marks the D form. * marks the point of attachment. (R)‑NODAGA = O=C(O)CN1CCN(CC(=O)O)CCN([C@H](CCC(=O)*)C(=O)O)CC1; DOTA = O=C(O)CN1CCN(CC(=O)O)CCN(CC(=O)*)CCN(CC(=O)O)CC1; TATA = O=C(CC[*:1])N1CN(C(=O)CC[*:2])CN(C(=O)CC[*:3])C1; Mox = methoxinine, COCC[C@H](N[*:1])C(=O)[*:2]; 1Nal = N[C@@H](Cc1cccc2ccccc12)C(=O)O; 2Nal = N[C@@H](Cc1ccc2ccccc2c1)C(=O)O; Hyp = O=C(O)[C@@H]1C[C@@H](O)CN1; hArg = N=C(N)NCCCC[C@H](N)C(=O)O
Can you tell me pKd for the items I'm about to list?
Give bare numbers, as −log10 of the molar value.

{DOTA}-CP[2Nal][dD]CMRDWSTP[Hyp]WC-OH (linker 1-5-15 via TATA; also: DOTA complexed with 68Ga) [[68Ga]Ga-8d ([68Ga]Ga-N188)]: 6.65

The record that follows has no pKd shown yet.
Value of pKd reported for the binder {(R)‑NODAGA}-CP[1Nal][dD]C[Mox][hArg]DWSTP[Hyp]WC-NH2 (linker 1-5-15 via TATA; also: NODAGA complexed with 68Ga) [[68Ga]Ga-4] is 7.88
